- Tested on: RPMI-8226 leukemia
- run.description: NCI tumour cell line growth inhibition, 48 h
observation.type: TGI (µM)
Numbers only here, please. The scale is µM.

Tell us which TGI value is on record for N#Cc1c(-c2ccccc2)nc2c(c(-c3ccccc3)nn2-c2ccccc2)c1-c1ccc(O)cc1
17.9

Tell us which TGI value is on record for CC1OC(n2cc(F)c(=O)[nH]c2=O)C(O[Si](C)(C)C(C)(C)C)C1O[Si](C)(C)C(C)(C)C (stereo not given)
35.4

Tell us which TGI value is on record for COc1ccc(NC2=C(Br)C(=O)C(C)=C(C)C2=O)cc1
5.01

---

- System: OVCAR-5 ovarian
- run.description: NCI tumour cell line growth inhibition, 48 h
observation.type: TGI

Tell us which TGI value is on record for CNC(=O)c1cc(Oc2ccc(NC(=O)Nc3ccc(Cl)c(OC(F)(F)F)c3)c(F)c2)ccn1
> 33.2 µM

Tell us which TGI value is on record for O=C1NC(=S)S/C1=C/c1ccco1
> 100 µM

Tell us which TGI value is on record for CC1(C)CCc2cc3c(cc2O1)OCCC3=O
> 100 µM

---

- System: HOP-62 NSCLC
- run.description: NCI tumour cell line growth inhibition, 48 h
observation.type: TGI

Tell us which TGI value is on record for CN1c2ccccc2C(=O)NC12CCN(CC1COc3ccccc3O1)CC2 (stereo not drawn)
> 100 µM

Tell us which TGI value is on record for CC(C)(C)c1ccc2c(c1)OCc1n[nH]c(n1)COc1cc(C(C)(C)C)ccc1OCCOCCO2
19.2 µM

Tell us which TGI value is on record for CCOC1NC(=O)c2ccccc21 (stereo not drawn)
> 100 µM

Tell us which TGI value is on record for CC1(C)OC(=O)C=C([O-])O1.CC1(C)OC(=O)C=C([O-])O1.O=c1c(O)c(-c2ccc([O-])cc2[O-])oc2cc(O)cc(O)c12.[Ti+4]
> 100 µM

Tell us which TGI value is on record for CN(C)c1nc(=NCc2ccccn2)ss1
> 10 µM

Tell us which TGI value is on record for c1cc[c]([Sn]([S]c2cccc3cccnc23)([c]2ccccc2)[c]2ccccc2)cc1
0.368 µM

Tell us which TGI value is on record for CCOC(=O)c1[nH]c2nc(SC)nc(NC)c2c1N
> 100 µM

Tell us which TGI value is on record for CCOC(=O)c1ccc(C(=O)/C(C(=O)OC(C)(C)C)=C2\CCCN2C)n1C
> 100 µM

Tell us which TGI value is on record for CCOC(=O)c1csc(NC(=O)CCCC#N)n1
> 100 µM

Tell us which TGI value is on record for c1ccc2c(c1)N=C(c1cccc3ccccc13)CC(c1cccc3ccccc13)S2 (stereo not drawn)
26.1 µM

Tell us which TGI value is on record for O=c1c(Cc2ccccc2)c(-c2ccccc2)[nH]n1C1=NCCN1
> 100 µM

Tell us which TGI value is on record for Cc1ccc(-c2nc(C(Cl)Cl)n3nc(-c4ccccc4)cc3n2)cc1
3.15 µM

Tell us which TGI value is on record for O=CN(O)CC(=O)O
> 100 µM

Tell us which TGI value is on record for COC(=O)C(=O)C(C(=O)C(=O)Nc1cc([N+](=O)[O-])ccc1C#N)c1nc2ccccc2[nH]c1=O (stereo not drawn)
> 100 µM

Tell us which TGI value is on record for Oc1ccc(Cc2ccccc2)c2cccnc12
80.6 µM

Tell us which TGI value is on record for NNC(=O)c1cccc2c1Oc1ccccc1S2
> 100 µM

Tell us which TGI value is on record for CNC(=O)c1ccc(-c2cnc3ncc(Cc4ccc5ncccc5c4)n3n2)cc1F
> 100 µM

Tell us which TGI value is on record for Cc1ccc(C(=O)c2[nH]c(Nc3cc(C)ccn3)c(C(=S)Nc3ccccc3)c2N)cc1
> 100 µM

Tell us which TGI value is on record for COc1cc2c3c(n(CCCN4CCC(N)CC4)c(=O)c2cc1OC)-c1cc2c(cc1C3=O)OCO2
1.11 µM

Tell us which TGI value is on record for CC1=NC(C)(C)N(O)C1(C)C
> 100 µM

Tell us which TGI value is on record for CCCCCC(=O)Oc1ccc(/C(=C(\C)c2ccc(OC)cc2)c2ccc(OCCN3CCCCC3)cc2)cc1
19.8 µM

Tell us which TGI value is on record for COC(=O)c1sc2ncc3c(c2c1N)CC(C)CC3 (stereo not drawn)
> 100 µM
